The entries below come with measured ECL signal values attached.
Biological target: T1, Recombinant Human DLL4 (human, UniProt Q9NR61 27-524)
T1 construct: also called delta-like protein 4; rHuman DLL4
Assay: ECL (MSD) multispot binding assay, DLL4 spotted on plate, Fab in solution
readout_label: ECL signal

binder	readout_label	data_value
Fab VH1-46_IGHD6-6*01_IGHJ1*01 S102A/S103P/S104F/H111F (APFF) & L6_IGKJ1*01 W94L (Fab, V domains shown, Fab from E. coli; VH in Plasmid A (CH1, His6 and Flag tags), VL in Plasmid C (kappa CL); also called APFF & W94L) VH: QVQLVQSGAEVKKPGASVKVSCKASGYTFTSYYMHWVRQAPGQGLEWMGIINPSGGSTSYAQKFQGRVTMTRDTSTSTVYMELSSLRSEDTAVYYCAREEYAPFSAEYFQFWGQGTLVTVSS VL: EIVLTQSPATLSLSPGERATLSCRASQSVSSYLAWYQQKPGQAPRLLIYDASNRATGIPARFSGSGSGTDFTLTISSLEPEDFAVYYCQQRSNLPPWTFGQGTKVEIKR	ECL signal	11600
Fab VH1-46_IGHD6-6*01_IGHJ1*01 S102A/S103P/S104F/H111F (APFF) & L6_IGKJ1*01 W94T (Fab, V domains shown, Fab from E. coli; VH in Plasmid A (CH1, His6 and Flag tags), VL in Plasmid C (kappa CL); also called APFF & W94T) VH: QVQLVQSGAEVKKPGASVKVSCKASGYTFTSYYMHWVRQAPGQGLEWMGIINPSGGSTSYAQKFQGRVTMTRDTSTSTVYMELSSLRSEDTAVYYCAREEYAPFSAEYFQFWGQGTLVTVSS VL: EIVLTQSPATLSLSPGERATLSCRASQSVSSYLAWYQQKPGQAPRLLIYDASNRATGIPARFSGSGSGTDFTLTISSLEPEDFAVYYCQQRSNTPPWTFGQGTKVEIKR	ECL signal	23200
Fab VH1-46_IGHD6-6*01_IGHJ1*01 S102A/S103P/S104F/H111F (APFF) & L6_IGKJ1*01 W94R (Fab, V domains shown, Fab from E. coli; VH in Plasmid A (CH1, His6 and Flag tags), VL in Plasmid C (kappa CL); also called APFF & W94R) VH: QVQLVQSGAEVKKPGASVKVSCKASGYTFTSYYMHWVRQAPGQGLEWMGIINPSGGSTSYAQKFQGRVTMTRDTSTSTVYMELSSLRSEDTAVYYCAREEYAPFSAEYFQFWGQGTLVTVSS VL: EIVLTQSPATLSLSPGERATLSCRASQSVSSYLAWYQQKPGQAPRLLIYDASNRATGIPARFSGSGSGTDFTLTISSLEPEDFAVYYCQQRSNRPPWTFGQGTKVEIKR	ECL signal	75800
